melting point: recorded values
experimentalEndpoint: melting point

1. O=C(NCc1ccn(-c2cc3nc(C(=O)O)c(=O)[nH]c3cc2Cl)c1)Nc1ccc(C(=O)O)cc1 [Example 10] = > 300 °C
2. Cc1cc2[nH]c(=O)c(C(=O)O)nc2cc1-n1ccc(CNC(=O)Nc2ccc(C(=O)O)cc2)c1 [Example 12] = > 300 °C
3. O=C(NCc1ccn(-c2cc3nc(C(=O)O)c(=O)[nH]c3cc2Cl)c1)Nc1cccc2ccccc12 [Example 40] = 196 to 198 °C
4. COc1cc2[nH]c(=O)c(C(=O)O)nc2cc1-n1ccc(CNC(=O)Nc2ccc(C(=O)O)cc2)c1 [Example 11] = > 300 °C
5. O=C(Nc1ccccc1)OCc1cn(-c2cc3nc(C(=O)O)c(=O)[nH]c3cc2Cl)cn1 [Example 47] = 199 to 201 °C (dec.)
6. O=C(NCc1ccn(-c2cc3nc(C(=O)O)c(=O)[nH]c3cc2F)c1)Nc1ccc(C(=O)O)cc1 [Example 13] = > 300 °C
7. O=C(NCc1ccn(-c2cc3nc(C(=O)O)c(=O)[nH]c3cc2Cl)c1)Nc1ccc(Cl)cc1 [Example 39] = 193 to 195 °C (dec.)
8. CC(C)NC(=O)NCc1ccn(-c2cc3nc(C(=O)O)c(=O)[nH]c3cc2Cl)c1 [Example 37] = 158 to 160 °C (dec.)
9. COc1ccc(NC(=O)NCc2ccn(-c3cc4nc(C(=O)O)c(=O)[nH]c4cc3Cl)c2)cc1 [Example 38] = 208 to 210 °C (dec.)
10. O=C(NCc1ccn(-c2cc3nc(C(=O)O)c(=O)[nH]c3cc2Cl)c1)Nc1ccccc1 [Example 26] = 171 to 173 °C (dec.)
11. O=C(Nc1ccc(C(=O)O)cc1)OCc1cn(-c2cc3nc(C(=O)O)c(=O)[nH]c3cc2Cl)cn1 [Example 53] = 246 to 248 °C (dec.)

* * *

Ki values, listed per item
target: AMPA receptor; experiment: Binding experiment against AMPA receptor ([3H]-AMPA binding, crude synaptic membranes from cerebral cortex); conditions: [3H]-AMPA 5 nmol/L, potassium thiocyanate 100 mmol/L, 30 minutes at 0° C., rat cerebral cortex crude synaptic membranes; IC50 converted to Ki; read-out: [3H]-AMPA (Ki: μmol/L)
experimentalEndpoint: Ki (µmol/L)

1) COc1cc2[nH]c(=O)c(C(=O)O)nc2cc1-n1ccc(CNC(=O)Nc2ccc(C(=O)O)cc2)c1 = 0.323
2) Cc1cc2[nH]c(=O)c(C(=O)O)nc2cc1-n1ccc(CNC(=O)Nc2ccc(C(=O)O)cc2)c1 = 0.178
3) O=C(NCc1ccn(-c2cc3nc(C(=O)O)c(=O)[nH]c3cc2F)c1)Nc1ccc(C(=O)O)cc1 = 0.924
4) O=C(NCc1ccn(-c2cc3nc(C(=O)O)c(=O)[nH]c3cc2Cl)c1)Nc1ccc(C(=O)O)cc1 = 0.067
